Reported koff values for a set of binders
molecular target: T1, human soluble urokinase plasminogen activator receptor (hsuPAR) (human, UniProt Q03405 23-303, limits assumed); assay: BLI (Octet) off-rate screen of scFv clones
T1 construct: Target antigen of the off-rate screen; also called human suPAR; rhuPAR-His
T1 sequence (Q03405 23-303 limits assumed): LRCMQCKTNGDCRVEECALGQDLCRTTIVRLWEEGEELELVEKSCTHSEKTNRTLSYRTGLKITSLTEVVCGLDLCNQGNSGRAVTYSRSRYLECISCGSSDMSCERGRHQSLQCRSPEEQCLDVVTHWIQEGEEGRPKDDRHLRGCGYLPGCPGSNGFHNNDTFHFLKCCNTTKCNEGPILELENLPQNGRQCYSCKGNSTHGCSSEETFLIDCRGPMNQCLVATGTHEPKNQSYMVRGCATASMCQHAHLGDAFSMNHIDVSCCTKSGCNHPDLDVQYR
Response body: numeric value in s⁻¹, unit text excluded.

{"binder": "suPAR_DB03_E06 (scFv, V domains shown, screened as scFv) VH: QVQLVQSGAEVKKPGASVKVSCKASGYTFTGQYVHWVRQAPGQGLEWMGWIDHENGNTIYDQKFQGRVTMTRDTSTSTVYMELSSLRSEDTAVYYCARGYDVDWFVYWGQGTLVTVSS VL: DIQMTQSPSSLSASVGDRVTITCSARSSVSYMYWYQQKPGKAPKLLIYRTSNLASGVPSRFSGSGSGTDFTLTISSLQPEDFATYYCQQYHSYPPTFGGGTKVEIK", "koff, s⁻¹": 0.0044}
{"binder": "suPAR_DB03_D01 (scFv, V domains shown, screened as scFv) VH: QVQLVQSGAEVKKPGASVKVSCKASGFNIKDYYIHWVRQAPGQGLEWMGWMDPNSGGTNYAQKFQGRVTMTRDTSTSTVYMELSSLRSEDTAVYYCARGYDVDWFVYWGQGTLVTVSS VL: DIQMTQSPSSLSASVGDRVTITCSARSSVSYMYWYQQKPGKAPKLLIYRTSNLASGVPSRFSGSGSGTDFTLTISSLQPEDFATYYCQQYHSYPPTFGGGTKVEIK", "koff, s⁻¹": 0.00416}

Switching to the query record.
Using known records, supply koff for suPAR_DB03_D08 (scFv, V domains shown, screened as scFv) VH: QVQLVQSGAEVKKPGASVKVSCKASGYTFTGYYMHWVRQAPGQGLEWMGWIDPENGSTIYDQKFQGRVTMTRDTSTSTVYMELSSLRSEDTAVYYCARGYDVDWFVYWGQGTLVTVSS VL: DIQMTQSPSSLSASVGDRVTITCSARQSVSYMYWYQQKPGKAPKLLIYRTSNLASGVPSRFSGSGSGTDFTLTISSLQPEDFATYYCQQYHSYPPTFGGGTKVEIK
0.00458
